These measurements were taken from a melting point compilation (Tetko et al.; mined from patent text by program, amines drawn as free bases though some values may be those of a salt).

# Lookup of reported melting point keyed by entry

Example cases with answers are listed next.
CCCC(C)(C)C(=O)O[C@H]1C[C@H](O)C=C2C=C[C@H](C)[C@H](CC[C@@H]3C[C@@H](O)CC(=O)O3)[C@H]21: 143 to 144 °C
CSc1cc(C(C)C)c(NC(=O)C2c3ccccc3COc3ccc(Br)cc32)c(C(C)C)c1 (stereo not drawn): 171 to 172 °C

// melting point lookup, key: CCCCCCCCC(=O)NCc1ccc(Oc2ccccc2[N+](=O)[O-])c(OC)c1
93 to 93.5 °C

###

endpoint: melting point

Consider the molecule CC(C)(O)C#Cc1cc(C(F)(F)F)cc(C(F)(F)F)c1 and give its measured melting point.
74.5 to 74.8 °C

What value of melting point has been recorded for this entry: Cc1cc(C(C)N(O)C(N)=O)ccc1Cl (configuration not stated)
129 to 131 °C

Dear colleague, I am looking for the recorded melting point of the following molecule: Cc1nc(OCCCc2cc(OC(C)C)nn2Cc2ccc(Cl)cc2Cl)c(CC(=O)O)s1
75 to 77 °C

Please look up its melting point: NNC(=O)C(=O)N(NC(=O)c1cc(Cl)ccc1O)C(=O)c1ccccc1O
> 330 °C

Given the entry CCN(c1ccc(C)c2cc(-c3ncc(C(C)O)s3)[nH]c12)S(=O)(=O)c1cccs1 (configuration not stated) , report its measured melting point.
152 to 153 °C

Any idea what melting point was measured for Cc1nn(C)c2c1N(C(=O)CN(C)C)c1ccccc1NC2=O ?
178 to 179 °C

Please look up its melting point: CCONC(=O)n1nc(Oc2c(Cl)cc(C(F)(F)F)cc2Cl)cc1C
105 to 107 °C

Give the measured melting point of Cc1cc(C)c(N(C)C(=O)CN2C(=O)c3ccccc3C2=O)c(C)c1CO .
254 to 256 °C

What does the data say about its melting point? Entry: COC(=O)[C@H](Cc1ccccc1)NC(=O)c1cnccn1
152 to 155 °C

Entry CCOc1ncc(C(=O)O)c2ccccc12 has what melting point?
222 °C

Which measured melting point value corresponds to CCS(=O)(=O)N1C[C@H](C)N(C(=O)[C@@](C)(O)C(F)(F)F)C[C@H]1C ?
142 to 144 °C

Would you kindly share the measured melting point for O=NCNC1=Nc2ccsc2C(c2ccccc2)=NC1 ?
156 to 159 °C

###

endpoint: melting point

Known melting point results, listed for orientation:
CC(C(=O)NCC(F)(F)C(F)(F)F)C(=O)NC1C(=O)N(C)c2cc(F)ccc2OC1C (stereo not drawn): 126 to 134 °C
CC(C)(C)OC(=O)NC[C@H]1CN(c2ccc3c(c2)CCCc2cn[nH]c2-3)C(=O)O1: 85 to 100 °C

What does the data say about its melting point? Entry: O=C1NCCN1OCc1ccccc1
64 to 65 °C

###

The entries below are paired with their reported melting point.

CC1(C)CC(=O)c2c(nc(C3CCCC3)c(C(=O)c3ccc(C(F)(F)F)cc3)c2-c2ccsc2)C1: 236 to 238 °C

Field request: melting point | item: O=C(O)c1ccc(-c2coc3ccccc23)cc1
222 to 225 °C

Param item = CCC(=O)c1cc(C2(c3cccc(-c4cccnc4F)c3)N=C(N)N(C)C2=O)cs1 (configuration not stated) ; retrieve measured melting point.
98 to 112 °C

What measured melting point goes with COC(=O)c1ccc(SC)c(N)c1 ?
63 to 65 °C

I have this compound here, OC1CCCc2nc3ccccc3c(NCc3ccccc3C(F)(F)F)c21 (configuration not stated) , and I need its recorded melting point.
158 to 160 °C

Request the reported melting point associated with CC(c1ccc(OCCC2OCCCO2)cc1)(c1ccc(OCCC2OCCCO2)cc1)c1ccc(OCCC2OCCCO2)cc1
101 °C

Any idea what its melting point is? The compound is OC1CN(CCC#Cc2ccccc2)CCC1c1cccc(C(F)(F)F)c1 (configuration not stated)
77 to 79 °C

State the recorded melting point for this entry: COC1C=C(C)C(=O)CC(C)(C)C1OC(=O)c1ccc2nc[nH]c2c1 (configuration not stated)
155 to 157 °C

Item Cc1c(-c2cccc(F)c2)sc2nc(N)[nH]c(=O)c12 has what recorded melting point?
310 to 330 °C

What does the data say about its melting point? Entry: COc1cc2c(cc1C(F)(F)F)N(C(=O)Nc1cc(F)cc(-c3cnccc3C)c1)CC2
191 to 195 °C

Can you share its melting point? I mean this compound: CC1CCc2c(c3cc(Br)ccc3n2C(=O)OC(C)(C)C)C1 (configuration not stated)
122 °C

Which melting point is reported for this compound? O[C@@H]1[C@H](O)[C@H](O)CO[C@H]1n1c(Br)nc2cc(Cl)ccc21
120 °C
